experiment: physchem; details: organic solvent or mixture, solubility in Anisole

MOLECULE: COc1ccc(N(c2ccc(OC)cc2)c2ccc(-c3ccc(N(c4ccc(OC)cc4)c4ccc(-c5ccc(N(c6ccc(OC)cc6)c6ccc(-c7ccc(N(c8ccc(OC)cc8)c8ccc(OC)cc8)cc7)cc6)c(C)c5)cc4C)cc3)cc2)cc1
solubility: 500 to 1000 mg/mL
--
MOLECULE: CCOc1ccc(N(c2ccc(C3=CCC(N(c4ccc(OC)cc4)c4ccc(-c5ccc(N(c6ccc(OC)cc6)c6ccc(-c7ccc(N(c8ccc(OCC)cc8)c8cccc9ccccc89)cc7)cc6)cc5)cc4)C=C3)cc2)c2cccc3ccccc23)cc1 (stereo not shown)
solubility: > 1000 mg/mL
--
MOLECULE: COc1ccc(N(c2ccc(OC)cc2)c2ccc(-c3ccc(N(c4ccc(OC)cc4)c4ccc(-c5ccc(N(c6ccc(OC)cc6)c6ccc(-c7ccc(N(c8ccc(OC)cc8)c8ccc(OC)cc8)cc7)cc6)cc5)cc4)cc3)cc2)cc1
solubility: 450 to 700 mg/mL
--
MOLECULE: COc1ccc(N(c2ccc(OC)cc2)c2ccc3c(c2)C2(c4cc(N(c5ccc(OC)cc5)c5ccc(OC)cc5)ccc4-3)c3cc(N(c4ccc(OC)cc4)c4ccc(OC)cc4)ccc3-c3ccc(N(c4ccc(OC)cc4)c4ccc(OC)cc4)cc32)cc1 [spiro-MeOTAD, reference compound]
solubility: 65 to 75 mg/mL

====

Item-by-item account of solubility
test: physchem; conditions: organic solvent or mixture, solubility L in chlorobenzene

COMPOUND: COc1ccc(N(c2ccc(OC)cc2)c2ccc(-c3ccc(N(c4ccc(OC)cc4)c4ccc(N(c5ccc(OC)cc5)c5ccc(-c6ccc(N(c7ccc(OC)cc7)c7ccc(OC)cc7)cc6)cc5)cc4)cc3)cc2)cc1
solubility: 1250 to 2500 mg/mL
//
COMPOUND: COc1ccc(N(c2ccc(OC)cc2)c2ccc(-c3ccc(N(c4ccc(OC)cc4)c4ccc(C5(c6ccc(N(c7ccc(OC)cc7)c7ccc(-c8ccc(N(c9ccc(OC)cc9)c9ccc(OC)cc9)cc8)cc7)cc6)CCCCC5)cc4)cc3)cc2)cc1
solubility: 650 to 1300 mg/mL
//
COMPOUND: CCCCC(CC)COc1ccc(N(c2ccc(-c3ccc(N(c4ccc(OC)cc4)c4ccc(OC)cc4)cc3)cc2)c2ccc(-c3ccc(N(c4ccc(OCC(CC)CCCC)cc4)c4ccc(-c5ccc(N(c6ccc(OC)cc6)c6ccc(OC)cc6)cc5)cc4)cc3)cc2)cc1 (centres unmarked)
solubility: > 650 mg/mL
//
COMPOUND: COc1ccc(N(c2ccc(OC)cc2)c2ccc(-c3ccc(N(c4ccc(-c5ccc(N(c6ccc(-c7ccc(N(c8ccc(OC)cc8)c8ccc(OC)cc8)cc7)cc6)c6cc(F)c(OC)c(F)c6)cc5)cc4)c4cc(F)c(OC)c(F)c4)cc3)cc2)cc1
solubility: > 2000 mg/mL
//
COMPOUND: CCCCCCC1(CCCCCC)c2cc(N(c3ccc(OC)cc3)c3ccc(-c4ccc(N(c5ccc(OC)cc5)c5ccc(OC)cc5)cc4)cc3)ccc2-c2ccc(N(c3ccc(OC)cc3)c3ccc(-c4ccc(N(c5ccc(OC)cc5)c5ccc(OC)cc5)cc4)cc3)cc21
solubility: 900 to 1800 mg/mL
